Biological target: Murine COX I (Mus musculus)
Construct: A 2.0 kb fragment containing the coding region
Sequence (P22437 27-602): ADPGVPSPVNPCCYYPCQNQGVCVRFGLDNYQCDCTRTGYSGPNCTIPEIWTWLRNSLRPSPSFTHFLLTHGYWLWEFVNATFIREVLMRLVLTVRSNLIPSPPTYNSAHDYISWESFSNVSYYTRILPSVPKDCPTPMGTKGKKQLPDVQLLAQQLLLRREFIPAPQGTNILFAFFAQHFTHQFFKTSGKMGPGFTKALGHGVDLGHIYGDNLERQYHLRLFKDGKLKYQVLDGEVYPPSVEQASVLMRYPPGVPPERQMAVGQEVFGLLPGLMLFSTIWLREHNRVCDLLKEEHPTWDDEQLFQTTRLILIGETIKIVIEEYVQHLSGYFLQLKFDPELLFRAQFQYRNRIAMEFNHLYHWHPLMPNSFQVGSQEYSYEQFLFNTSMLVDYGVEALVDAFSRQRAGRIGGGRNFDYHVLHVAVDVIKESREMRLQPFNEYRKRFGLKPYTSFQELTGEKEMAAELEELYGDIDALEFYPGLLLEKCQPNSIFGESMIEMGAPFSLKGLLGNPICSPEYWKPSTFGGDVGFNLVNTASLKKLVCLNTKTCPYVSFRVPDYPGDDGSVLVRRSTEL
Experiment: COX I activity in vitro (PGE2 ELISA, recombinant enzyme)
Conditions: arachidonic acid 10 μM, read-out: Murine COX I ID50
Outcome measure: IC50

Compound structure string	Target or test system	IC50
CS(=O)(=O)c1ccc(-c2c(Br)sc(Br)c2-c2ccc(F)cc2)cc1	Murine COX I (Mus musculus)	100 µM

Then this molecule:
Lookup result for `CCOC(=O)c1sc(C(=O)O)c(-c2ccc(F)cc2)c1-c1ccc(S(C)(=O)=O)cc1` ; measured IC50: > 100 µM
